Test system: H460
assay_info: Cell viability assay (CellTiter-Blue), H460
Assay type: cell-based
measurement_setup: Homo sapiens, NCI-H460; H460 cells; cell proliferation/viability; read-out: EC50 H460 μM (lung)
test_readout: EC50

Value of EC50 reported for the compound CS(=O)(=O)Nc1ccc(-c2c(F)cnc3[nH]c4cnc(-c5cccnc5)cc4c23)cc1 [Example 22] is 1 to 100 nM

* * *

study_target: Pim-3 (Homo sapiens, UniProt Q86V86)
Construct: His6-labelled recombinant full-length human Pim-1, Pim-2 or Pim-3 protein; His6; made in house
assay_info: TR-FRET assay, Pim-3 kinase (phosphorylation of Bad Ser112)
Format: biochemical
measurement_setup: TR-FRET; ATP 40 μM; read-out: IC50 Pim3
pIC50: −log10 of the molar value.
Would you kindly list pIC50 for each of these compounds?

Value of pIC50 reported for the compound CCCN(CCC)CCCN1CCN(c2c(F)cnc3[nH]c4cnc(-c5cccnc5)cc4c23)CC1 is 7.00 to 9.00

Value of pIC50 reported for the compound CCN(CC)CCN1CCN(c2c(F)cnc3[nH]c4cnc(-c5cccnc5)cc4c23)CC1 is 7.00 to 9.00

Value of pIC50 reported for the compound CCN(CC)CCCn1cc(-c2cnc3[nH]c4cnc(-c5cccnc5)cc4c3c2)cn1 is 7.00 to 9.00

Value of pIC50 reported for the compound O=C(c1ccccc1)c1c(F)cnc2[nH]c3cnc(-c4cccnc4)cc3c12 is 5.30 to 6.00

Value of pIC50 reported for the compound Nc1cnc2[nH]c3cnc(-c4cccnc4)cc3c2c1 is 6.00 to 7.00

Value of pIC50 reported for the compound Cn1ccc2cc(-c3c(F)cnc4[nH]c5cnc(-c6cccnc6)cc5c34)ccc21 is 6.00 to 7.00

Value of pIC50 reported for the compound CN(C)CC(=O)N1CCN(c2cccc(-c3cnc4[nH]c5cnc(-c6cccnc6)cc5c4c3)c2)CC1 is 7.00 to 9.00

Value of pIC50 reported for the compound COc1cncc(-c2cc3c(cn2)[nH]c2ncc(F)cc23)c1 is 5.30 to 6.00

Value of pIC50 reported for the compound c1cncc(-c2cc3c(cn2)[nH]c2ncc(-c4ccc(N5CCNCC5)cc4)cc23)c1 is 7.00 to 9.00

Value of pIC50 reported for the compound Cn1nccc1-c1c(F)cnc2[nH]c3cnc(-c4cccnc4)cc3c12 is 5.30 to 6.00

* * *

Would you kindly list IC50 for each of these compounds?
study_target: Pim-2 (Homo sapiens)
Construct: His6-labelled recombinant full-length human Pim-1, Pim-2 or Pim-3 protein; His6; made in house
assay_info: TR-FRET assay, Pim-2 kinase (phosphorylation of Bad Ser112)
Format: biochemical
measurement_setup: TR-FRET; ATP 40 μM; read-out: IC50 Pim2

Value of IC50 reported for the compound CCCN(CCC)CCCN1CCN(c2c(F)cnc3[nH]c4cnc(-c5cccnc5)cc4c23)CC1 [Example 88] is 100 to 1000 nM

Value of IC50 reported for the compound COc1ccnc2[nH]c3cnc(-c4cccnc4)cc3c12 [Example 8] is 1000 to 5000 nM

Value of IC50 reported for the compound Cc1csc(-c2c(F)cnc3[nH]c4cnc(-c5cccnc5)cc4c23)c1 [Example 54] is > 5000 nM

Value of IC50 reported for the compound COc1cnc2[nH]c3cnc(-c4cnn(CCCCCNC(=O)OC(C)(C)C)c4)cc3c2c1 [Example 167] is 1000 to 5000 nM

Value of IC50 reported for the compound c1cncc(-c2cc3c(cn2)[nH]c2ncc(-c4ccc(N5CCN(C6CC6)CC5)cc4)cc23)c1 [Example 141] is 1000 to 5000 nM

Value of IC50 reported for the compound CS(=O)(=O)c1cccc(-c2c(F)cnc3[nH]c4cnc(-c5cccnc5)cc4c23)c1 [Example 72] is > 5000 nM

Value of IC50 reported for the compound Fc1cnc2[nH]c3cnc(-c4cccnc4)cc3c2c1-c1cn[nH]c1 [Example 71] is 100 to 1000 nM

Value of IC50 reported for the compound c1cnc2[nH]c3cnc(-c4ccoc4)cc3c2c1 [Example 40] is > 5000 nM

Value of IC50 reported for the compound c1cncc(-c2cc3c(cn2)[nH]c2ncc(-c4ccc(OCCN5CCOCC5)cc4)cc23)c1 [Example 148] is 100 to 1000 nM

Value of IC50 reported for the compound COc1ccncc1-c1cc2c(cn1)[nH]c1ncc(F)cc12 [Example 160] is > 5000 nM

Value of IC50 reported for the compound Fc1ccc(-c2cc3c(cn2)[nH]c2ncccc23)cn1 [Example 41] is > 5000 nM

Value of IC50 reported for the compound CC(C)Cn1cc(-c2cnc3[nH]c4cnc(-c5cccnc5)cc4c3c2)cn1 [Example 117] is 1000 to 5000 nM

Value of IC50 reported for the compound Fc1cnc2[nH]c3cnc(-c4cccnc4)cc3c2c1-c1ccc(OCCN2CCCC2)cc1 [Example 97] is 100 to 1000 nM

Value of IC50 reported for the compound Oc1ccc(-c2cnc3[nH]c4cnc(-c5cccnc5)cc4c3c2)cc1 [Example 151] is 100 to 1000 nM

Value of IC50 reported for the compound Fc1cnc2[nH]c3cnc(-c4cccnc4)cc3c2c1-c1ccc2cc[nH]c2c1 [Example 55] is 1000 to 5000 nM

Value of IC50 reported for the compound CN1CCN(CCCn2cc(-c3cnc4[nH]c5cnc(-c6cccnc6)cc5c4c3)cn2)CC1 [Example 124] is 100 to 1000 nM

Value of IC50 reported for the compound CC(C)C(=O)Nc1ccc(-c2c(F)cnc3[nH]c4cnc(-c5cccnc5)cc4c23)cc1 [Example 68] is 1000 to 5000 nM

Value of IC50 reported for the compound NS(=O)(=O)c1cccc(-c2c(F)cnc3[nH]c4cnc(-c5cccnc5)cc4c23)c1 [Example 21] is > 5000 nM

Value of IC50 reported for the compound c1cncc(-c2cc3c(cn2)[nH]c2ncc(-c4ccc(OCCn5ccnc5)cc4)cc23)c1 [Example 150] is 100 to 1000 nM

Value of IC50 reported for the compound CN1CCN(c2cnc3[nH]c4cnc(-c5cccnc5)cc4c3c2)CC1 [Example 106] is > 5000 nM

Value of IC50 reported for the compound CCN(CC)CCCN1CCN(c2c(F)cnc3[nH]c4cnc(-c5cccnc5)cc4c23)CC1 [Example 89] is 1000 to 5000 nM

* * *

study_target: Pim-2 (Homo sapiens, UniProt Q9P1W9)
Construct: His6-labelled recombinant full-length human Pim-1, Pim-2 or Pim-3 protein; His6; made in house
Sequence (Q9P1W9 whole entry): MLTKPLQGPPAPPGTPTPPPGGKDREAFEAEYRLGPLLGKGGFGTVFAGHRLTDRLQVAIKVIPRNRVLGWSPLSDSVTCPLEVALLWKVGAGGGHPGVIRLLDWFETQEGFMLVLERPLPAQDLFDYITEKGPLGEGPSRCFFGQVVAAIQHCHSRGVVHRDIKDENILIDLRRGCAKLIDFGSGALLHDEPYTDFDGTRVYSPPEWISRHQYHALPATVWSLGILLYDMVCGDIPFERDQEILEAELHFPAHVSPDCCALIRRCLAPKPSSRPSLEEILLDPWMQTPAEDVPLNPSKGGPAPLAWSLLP
assay_info: TR-FRET assay, Pim-2 kinase (phosphorylation of Bad Ser112)
Type: biochemical
measurement_setup: TR-FRET; ATP 40 μM; read-out: IC50 Pim2
test_readout: IC50

Value of IC50 reported for the molecule CS(=O)(=O)Nc1ccc(-c2c(F)cnc3[nH]c4cnc(-c5cccnc5)cc4c23)cc1 is 100 to 1000 nM

Value of IC50 reported for the molecule C=CCn1cc(-c2cc3c(cn2)[nH]c2nccc(-c4ccc(C(=O)OC)cc4)c23)cn1 is 100 to 1000 nM

Value of IC50 reported for the molecule c1cncc(-c2cc3c(cn2)[nH]c2ncc(-c4ccc(OCCCN5CCOCC5)cc4)cc23)c1 is 100 to 1000 nM

Value of IC50 reported for the molecule CN1CCCN(c2c(F)cnc3[nH]c4cnc(-c5cccnc5)cc4c23)CC1 is > 5000 nM

Value of IC50 reported for the molecule CCN(CC)CCN1CCN(c2c(F)cnc3[nH]c4cnc(-c5cccnc5)cc4c23)CC1 is 1000 to 5000 nM

Value of IC50 reported for the molecule Fc1cc(F)cc(-c2c(F)cnc3[nH]c4cnc(-c5cccnc5)cc4c23)c1 is > 5000 nM

Value of IC50 reported for the molecule CCCNc1cnc2[nH]c3cnc(-c4cccnc4)cc3c2c1 is 1000 to 5000 nM

Value of IC50 reported for the molecule CCOC(=O)c1cnc2[nH]c3cnc(-c4cccnc4)cc3c2c1 is 1000 to 5000 nM

Value of IC50 reported for the molecule Fc1cnc2[nH]c3cnc(-c4cccnc4)cc3c2c1N1CCOCC1 is 100 to 1000 nM

Value of IC50 reported for the molecule c1cncc(-c2cc3c(cn2)[nH]c2ncc(-c4ccc(N5CCNCC5)nc4)cc23)c1 is 100 to 1000 nM

Value of IC50 reported for the molecule c1cncc(-c2cc3c(cn2)[nH]c2ncc(-c4ccc(OCCCN5CCCCC5)cc4)cc23)c1 is 100 to 1000 nM

Value of IC50 reported for the molecule Fc1cnc2[nH]c3cnc(-c4cccnc4)cc3c2c1N1CCN(CCCN2CCOCC2)CC1 is 100 to 1000 nM

Value of IC50 reported for the molecule Cn1cc(-c2c(F)cnc3[nH]c4cnc(-c5cccnc5)cc4c23)cn1 is 1000 to 5000 nM

Value of IC50 reported for the molecule CN(C)CC(=O)N1CCN(c2cccc(-c3cnc4[nH]c5cnc(-c6cccnc6)cc5c4c3)c2)CC1 is > 5000 nM

Value of IC50 reported for the molecule CCN1CCN(C(C)(C)C#Cc2c(F)cnc3[nH]c4cnc(-c5cccnc5)cc4c23)CC1 is 1000 to 5000 nM

Value of IC50 reported for the molecule Cn1ccc2cc(-c3c(F)cnc4[nH]c5cnc(-c6cccnc6)cc5c34)ccc21 is > 5000 nM

Value of IC50 reported for the molecule OCC(O)CCc1c(F)cnc2[nH]c3cnc(-c4cccnc4)cc3c12 (centres unmarked) is 1000 to 5000 nM

Value of IC50 reported for the molecule CN(C)CCCOc1ccc(-c2cnc3[nH]c4cnc(-c5cccnc5)cc4c3c2)cn1 is 100 to 1000 nM

Value of IC50 reported for the molecule Cc1cc(N2CCN(C(=O)OC(C)(C)C)CC2)ncc1-c1cnc2[nH]c3cnc(-c4cccnc4)cc3c2c1 is > 5000 nM

Value of IC50 reported for the molecule c1cncc(-c2cc3c(cn2)[nH]c2ncc(N4CCNCC4)cc23)c1 is > 5000 nM
